# pIC50 per record follows
biological target: Thymidine kinase (Varicella-zoster virus (strain Dumas) (HHV-3) (Human herpesvirus 3)); test: Inhibitory concentration against Varicella- zoster virus thymidine kinase(VZV TK)
Sequence (P09250 whole entry): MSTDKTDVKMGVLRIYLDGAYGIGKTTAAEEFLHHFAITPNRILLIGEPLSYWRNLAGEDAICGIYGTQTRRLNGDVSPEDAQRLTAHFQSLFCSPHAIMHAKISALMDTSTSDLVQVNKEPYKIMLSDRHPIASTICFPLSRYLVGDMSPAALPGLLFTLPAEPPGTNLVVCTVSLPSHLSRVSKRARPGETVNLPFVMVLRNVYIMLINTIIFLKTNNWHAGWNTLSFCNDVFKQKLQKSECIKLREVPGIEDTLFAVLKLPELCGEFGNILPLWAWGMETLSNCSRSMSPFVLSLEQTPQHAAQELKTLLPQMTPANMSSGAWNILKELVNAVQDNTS
In simple prose, pIC50 is minus the logarithm base ten of a concentration in moles per litre.

Take a look at these entries with their results.
| Molecule | Measured Metric | Value Observed |
| --- | --- | --- |
| COCC(=O)O[C@H]1[C@H](O)[C@@H](CO)O[C@H]1n1cc(/C=C/Br)c(=O)[nH]c1=O | pIC50 | 4.46 |
| CCCCCCCCCC(=O)O[C@H]1[C@H](O)[C@@H](CO)O[C@H]1n1cc(/C=C/Br)c(=O)[nH]c1=O | pIC50 | 3.07 |
| CCCCCCCC(=O)O[C@H]1[C@H](O)[C@@H](CO)O[C@H]1n1cc(/C=C/Br)c(=O)[nH]c1=O | pIC50 | 3.14 |

We next turn to a different molecule, shown below.
Incoming: Answer with the recorded pIC50 for the molecule listed here: O=c1[nH]c(=O)n(C2O[C@H](CO)[C@@H](O)[C@@H]2O)cc1/C=C\Br (stereo partly drawn)
Outgoing: 5.48

---

biological target: Thymidine kinase (Human herpesvirus 1 (strain SC16) (HHV-1) (Human herpes simplex virus1), UniProt P06479); assay: Inhibitory concentration against Herpes simplex virus type 1 thymidine kinase(HSV-1 TK); design: species or system Herpes simplex virus (type 1 / strain SC16)
Sequence (P06479 whole entry): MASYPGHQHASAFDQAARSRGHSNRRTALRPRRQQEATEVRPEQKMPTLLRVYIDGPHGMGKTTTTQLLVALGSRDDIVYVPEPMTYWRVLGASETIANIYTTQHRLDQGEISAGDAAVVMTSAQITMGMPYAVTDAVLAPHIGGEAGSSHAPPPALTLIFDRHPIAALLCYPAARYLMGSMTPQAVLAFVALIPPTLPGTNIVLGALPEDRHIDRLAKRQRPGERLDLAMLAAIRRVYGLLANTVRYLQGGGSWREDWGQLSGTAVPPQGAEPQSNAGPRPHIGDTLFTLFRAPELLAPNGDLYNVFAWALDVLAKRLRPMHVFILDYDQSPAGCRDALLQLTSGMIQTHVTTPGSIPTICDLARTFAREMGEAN
pIC50: −log10 of the molar value.
Measured Metric: pIC50

Take a look at these entries with their results.
| Molecule | pIC50 |
| --- | --- |
| Nc1ccn([C@@H]2O[C@H](CO)[C@@H](O)[C@@H]2O)c(=O)n1 | < 3.00 |
| CCCCCCCCO[C@H]1[C@H](O)[C@@H](CO)O[C@H]1n1cc(C)c(=O)[nH]c1=O | < 3.00 |
| CCCCCCCCCCCC(=O)O[C@H]1[C@H](O)[C@@H](CO)O[C@H]1n1cc(C)c(=O)[nH]c1=O | < 3.00 |
| CCCCC(=O)O[C@H]1[C@H](O)[C@@H](CO)O[C@H]1n1cc(C)c(=O)[nH]c1=O | < 3.00 |
| CCCCCCCC(=O)O[C@H]1[C@H](O)[C@@H](CO)O[C@H]1n1cc(/C=C/Br)c(=O)[nH]c1=O | < 3.00 |
| CCCCCCCCCC(=O)O[C@H]1[C@H](O)[C@@H](CO)O[C@H]1n1cc(/C=C/Br)c(=O)[nH]c1=O | < 3.00 |

Incoming: Answer with the recorded pIC50 for the molecule listed here: COCC(=O)O[C@H]1[C@H](O)[C@@H](CO)O[C@H]1n1cc(/C=C/Br)c(=O)[nH]c1=O
Outgoing: 4.08

Incoming: Answer with the recorded pIC50 for the molecule listed here: Cc1cn([C@@H]2O[C@H](CO)[C@@H](O)[C@H]2OCc2ccccc2)c(=O)[nH]c1=O
Outgoing: < 3.00

Incoming: Answer with the recorded pIC50 for the molecule listed here: CCCCCCCCCC(=O)O[C@H]1[C@H](O)[C@@H](CO)O[C@H]1n1cc(C)c(=O)[nH]c1=O
Outgoing: < 3.00

Incoming: Answer with the recorded pIC50 for the molecule listed here: Cc1cn([C@@H]2O[C@H](CO)[C@@H](O)[C@@H]2O)c(=O)[nH]c1=O
Outgoing: 4.62

Incoming: Answer with the recorded pIC50 for the molecule listed here: O=c1[nH]c(=O)n(C2O[C@H](CO)[C@@H](O)[C@@H]2O)cc1/C=C\Br (some centres not stated)
Outgoing: 5.37

Incoming: Answer with the recorded pIC50 for the molecule listed here: CCCCCCCCO[C@H]1[C@H](O)[C@@H](CO)O[C@H]1n1ccc(N)nc1=O
Outgoing: < 3.00

---

Biological target: Thymidine kinase 2, mitochondrial (Homo sapiens)
Sequence (O00142 whole entry): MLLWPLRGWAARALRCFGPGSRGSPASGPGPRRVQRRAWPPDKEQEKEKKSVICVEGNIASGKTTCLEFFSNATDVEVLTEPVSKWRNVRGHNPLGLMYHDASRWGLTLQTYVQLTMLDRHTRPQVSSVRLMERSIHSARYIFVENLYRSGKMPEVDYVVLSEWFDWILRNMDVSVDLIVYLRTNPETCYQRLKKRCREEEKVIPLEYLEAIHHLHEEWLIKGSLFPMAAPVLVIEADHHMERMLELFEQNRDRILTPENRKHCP
pIC50: −log10 of the molar value.
Outcome label depends on pIC50 relative to 4: at/above gives met, below gives not met.

Incoming: Hi team, for Cc1cn([C@@H]2O[C@H](CO)[C@@H](O)[C@H]2OCc2ccccc2)c(=O)[nH]c1=O , is the recorded pIC50 at or above 4?
Outgoing: not met

Incoming: Hi team, for Cc1cn([C@@H]2O[C@H](CO)[C@@H](O)[C@@H]2O)c(=O)[nH]c1=O , is the recorded pIC50 at or above 4?
Outgoing: not met

Incoming: Hi team, for Nc1ccn([C@@H]2O[C@H](CO)[C@@H](O)[C@@H]2O)c(=O)n1 [CYTARABINE] , is the recorded pIC50 at or above 4?
Outgoing: not met

Incoming: Hi team, for CCCCCCCCCC(=O)O[C@H]1[C@H](O)[C@@H](CO)O[C@H]1n1cc(C)c(=O)[nH]c1=O , is the recorded pIC50 at or above 4?
Outgoing: met

Incoming: Hi team, for CCCCCCCC(=O)O[C@H]1[C@H](O)[C@@H](CO)O[C@H]1n1cc(/C=C/Br)c(=O)[nH]c1=O , is the recorded pIC50 at or above 4?
Outgoing: met

Incoming: Hi team, for COCC(=O)O[C@H]1[C@H](O)[C@@H](CO)O[C@H]1n1cc(/C=C/Br)c(=O)[nH]c1=O , is the recorded pIC50 at or above 4?
Outgoing: not met

Incoming: Hi team, for CCCCC(=O)O[C@H]1[C@H](O)[C@@H](CO)O[C@H]1n1cc(C)c(=O)[nH]c1=O , is the recorded pIC50 at or above 4?
Outgoing: not met

Incoming: Hi team, for CCCCCCCCO[C@H]1[C@H](O)[C@@H](CO)O[C@H]1n1ccc(N)nc1=O , is the recorded pIC50 at or above 4?
Outgoing: not met

Incoming: Hi team, for CCCCCCCCCCCC(=O)O[C@H]1[C@H](O)[C@@H](CO)O[C@H]1n1cc(C)c(=O)[nH]c1=O , is the recorded pIC50 at or above 4?
Outgoing: met

Incoming: Hi team, for CCCCCCCCCC(=O)O[C@H]1[C@H](O)[C@@H](CO)O[C@H]1n1cc(/C=C/Br)c(=O)[nH]c1=O , is the recorded pIC50 at or above 4?
Outgoing: met

Incoming: Hi team, for O=c1[nH]c(=O)n(C2O[C@H](CO)[C@@H](O)[C@@H]2O)cc1/C=C\Br (some centres not stated) , is the recorded pIC50 at or above 4?
Outgoing: met

---

molecular target: Thymidine kinase (Varicella-zoster virus (strain Dumas) (HHV-3) (Human herpesvirus 3)); experiment: Inhibitory concentration against Varicella- zoster virus thymidine kinase(VZV TK)
pIC50: −log10 of the molar value.
# pIC50 per record follows

Take a look at these entries with their results.
| Input Smiles | pIC50 |
| --- | --- |
| CCCCCCCCO[C@H]1[C@H](O)[C@@H](CO)O[C@H]1n1ccc(N)nc1=O | < 3.00 |
| CCCCCCCCO[C@H]1[C@H](O)[C@@H](CO)O[C@H]1n1cc(C)c(=O)[nH]c1=O | < 3.00 |
| Cc1cn([C@@H]2O[C@H](CO)[C@@H](O)[C@@H]2O)c(=O)[nH]c1=O | 4.77 |

We next turn to a different molecule, shown below.
Incoming: Answer with the recorded pIC50 for the molecule listed here: CCCCC(=O)O[C@H]1[C@H](O)[C@@H](CO)O[C@H]1n1cc(C)c(=O)[nH]c1=O
Outgoing: < 3.00

---

# IC50 per record follows
Target: Deoxynucleoside kinase (Drosophila melanogaster, UniProt Q9XZT6)
Sequence (Q9XZT6 whole entry): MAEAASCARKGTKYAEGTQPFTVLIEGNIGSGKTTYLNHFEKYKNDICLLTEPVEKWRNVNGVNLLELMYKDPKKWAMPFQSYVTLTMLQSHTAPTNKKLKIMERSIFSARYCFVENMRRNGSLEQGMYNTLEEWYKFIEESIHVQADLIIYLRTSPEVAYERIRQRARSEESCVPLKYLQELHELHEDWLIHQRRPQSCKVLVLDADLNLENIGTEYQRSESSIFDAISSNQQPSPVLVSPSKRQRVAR

| Input Smiles | IC50 |
| --- | --- |
| CCCCCCCCCC(=O)O[C@H]1[C@H](O)[C@@H](CO)O[C@H]1n1cc(/C=C/Br)c(=O)[nH]c1=O | 163 µM |
| CCCCCCCCO[C@H]1[C@H](O)[C@@H](CO)O[C@H]1n1cc(C)c(=O)[nH]c1=O | > 1000 µM |

We next turn to a different compound, shown below.
Incoming: Answer with the recorded IC50 for the compound listed here: Cc1cn([C@@H]2O[C@H](CO)[C@@H](O)[C@H]2OCc2ccccc2)c(=O)[nH]c1=O
Outgoing: > 1000 µM

Cited source for all entries: ChEMBL document CHEMBL1134069
